Species: Rattus norvegicus
Assay: Percent of maximal acetylcholine (ACh)-induced vasorelaxation of the rat aorta
Assay type: functional
In plain terms, low Emax, meaning strictly below 90%, gives TRUE, and everything else gives FALSE.

Query: Say whether its Emax is strictly beneath 90%. Entry: "O=C1C(Nc2ccc(F)c(F)c2F)=CC(=O)c2ncccc21"
Reply: TRUE

Query: Say whether its Emax is strictly beneath 90%. Entry: "O=C1C(Nc2ccccc2)=CC(=O)c2ncccc21"
Reply: TRUE

Query: Say whether its Emax is strictly beneath 90%. Entry: "O=C1C=C(Nc2ccc(F)c(F)c2F)C(=O)c2ccccc21"
Reply: FALSE

Query: Say whether its Emax is strictly beneath 90%. Entry: "O=C1C=C(Nc2ccc(Cl)cc2)C(=O)c2cnccc21"
Reply: FALSE

Query: Say whether its Emax is strictly beneath 90%. Entry: "O=C1C=C(Nc2ccccc2)C(=O)c2ccccc21"
Reply: FALSE

Query: Say whether its Emax is strictly beneath 90%. Entry: "O=C1C(Nc2cccc(F)c2)=CC(=O)c2ncccc21"
Reply: TRUE

Query: Say whether its Emax is strictly beneath 90%. Entry: "O=C1C=C(Nc2ccccc2)C(=O)c2cnccc21"
Reply: FALSE

Query: Say whether its Emax is strictly beneath 90%. Entry: "O=C1C(Nc2ccc(F)cc2F)=CC(=O)c2ncccc21"
Reply: FALSE

Query: Say whether its Emax is strictly beneath 90%. Entry: "N=C(NCCC[C@H](N)C(=O)O)N[N+](=O)[O-]"
Reply: TRUE

Query: Say whether its Emax is strictly beneath 90%. Entry: "O=C1C=C(Nc2ccc(Cl)cc2)C(=O)c2ccccc21"
Reply: FALSE

Query: Say whether its Emax is strictly beneath 90%. Entry: "O=C1C=CC(=O)c2ncccc21"
Reply: TRUE

Query: Say whether its Emax is strictly beneath 90%. Entry: "O=C1C=C(Nc2ccc(F)cc2F)C(=O)c2cnccc21"
Reply: FALSE

Query: Say whether its Emax is strictly beneath 90%. Entry: "O=C1C=C(Nc2cc(F)cc(F)c2)C(=O)c2cnccc21"
Reply: FALSE

Query: Say whether its Emax is strictly beneath 90%. Entry: "O=C1C(Nc2ccc(F)cc2)=CC(=O)c2ncccc21"
Reply: TRUE

Query: Say whether its Emax is strictly beneath 90%. Entry: "O=C1C=CC(=O)c2ccccc21"
Reply: FALSE

Query: Say whether its Emax is strictly beneath 90%. Entry: "O=C1C=C(Nc2ccc(F)cc2)C(=O)c2ccccc21"
Reply: FALSE

---

Species: Rattus norvegicus
Test: Percent of maximal acetylcholine (ACh)-induced vasorelaxation of the rat aorta
Type: functional
ENDPOINT_LABEL: Emax

Query: Respond only with Emax recorded for "O=C1C(Nc2ccc(I)cc2)=CC(=O)c2ncccc21"
Reply: 89%

Query: Respond only with Emax recorded for "O=C1C(Nc2ccc(Br)cc2)=CC(=O)c2ncccc21"
Reply: 88%

Query: Respond only with Emax recorded for "O=C1C=C(Nc2ccc(F)c(F)c2)C(=O)c2cnccc21"
Reply: 81%

Query: Respond only with Emax recorded for "O=C1C=C(Nc2ccc(F)c(F)c2F)C(=O)c2cnccc21"
Reply: 87%

Query: Respond only with Emax recorded for "O=C1C=C(Nc2ccc(F)cc2)C(=O)c2cnccc21"
Reply: 72%

Query: Respond only with Emax recorded for "O=C1C(Nc2ccc(Cl)cc2)=CC(=O)c2ncccc21"
Reply: 86%
